assayProcedure: Stability of the analytes in rat plasma samples under storage conditions
Format: physicochemical
reportedConditions: spiked concentration 6400 ng/mL, n = 6
measure: Measured, Autosampler for 12 h (ng/mL)

| compound | quantitativeReadout |
| --- | --- |
| O=c1cc(-c2ccccc2)oc2cc(O[C@@H]3O[C@H](CO[C@@H]4O[C@H](CO)[C@@H](O)[C@H](O)[C@H]4O)[C@@H](O)[C@H](O)[C@H]3O)c(O)c(O)c12 [Oroxin B, oroxin B] | 6506.73 |
| O=c1cc(-c2ccccc2)oc2cc(O[C@@H]3O[C@H](CO)[C@@H](O)[C@H](O)[C@H]3O)c(O)c(O)c12 [Oroxin A, oroxin A] | 6572.01 |
| O=c1cc(-c2ccccc2)oc2cc(O)c(O)c(O)c12 [Baicalein, baicalein] | 6241.15 |
| O=C(O)[C@H]1O[C@@H](Oc2cc(O)c3c(=O)cc(-c4ccccc4)oc3c2)[C@H](O)[C@@H](O)[C@@H]1O [Chrysin-7-O-β-D-glucuronide, chrysin-7-O-β-D-glucuronide] | 5954.05 |

Data provenance: paper PMC12589998
